# Experimental System: HLA-A*02:01
# Method Notes: IEDB peptide-MHC binding, purified MHC/competitive/fluorescence; filed as Kd, often an IC50 or EC50 that approximates it; bounds were set here for any values at or beyond the usual limits of such assays
# Conditions: source organism: Camelpox virus CMS
Assay Metric: Kd (nM)

- Residues: "IVIEAIHTV"
  Assay Metric: "Kd"
  Observed Measurement: 2.1

----------
Overview of reported Kd across a group of sequences:
# Experimental System: HLA-A*02:01
# Method Notes: IEDB peptide-MHC binding, purified MHC/direct/fluorescence; filed as Kd, often an IC50 or EC50 that approximates it; bounds were set here for any values at or beyond the usual limits of such assays
# Conditions: source organism: Escherichia coli O157:H7

- Residues: "GMAEDLQSL"
  Experimental System: "HLA-A*02:01"
  Kd: "0.0657 µM"
- Residues: "REWGWRIPF"
  Experimental System: "HLA-A*02:01"
  Kd: "≥ 20 µM"
- Residues: "IRNPPMVVF"
  Experimental System: "HLA-A*02:01"
  Kd: "≥ 20 µM"

----------
# Experimental System: HLA-A*68:01
# Method Notes: IEDB peptide-MHC binding, purified MHC/competitive/radioactivity; filed as Kd, often an IC50 or EC50 that approximates it; bounds were set here for any values at or beyond the usual limits of such assays
# Conditions: source organism: Dengue virus 2 Peru/IQT2913/1996
pKd: −log10 of the molar value.
Assay Metric: pKd

- Residues: "TVMAFHLTTR"
  Experimental System: "HLA-A*68:01"
  Assay Metric: "pKd"
  Observed Measurement: 7.91

----------
# Experimental System: HLA-B*51:01
# Method Notes: IEDB peptide-MHC binding, purified MHC/competitive/radioactivity; filed as Kd, often an IC50 or EC50 that approximates it; bounds were set here for any values at or beyond the usual limits of such assays
# Conditions: source organism: Mammarenavirus machupoense
Assay Metric: Kd (µM)

- Residues: "TPNQPSAEF"
  Assay Metric: "Kd"
  Units Label: "µM"
  Observed Measurement: 13

----------
# Experimental System: HLA-B*15:17
# Method Notes: IEDB peptide-MHC binding, purified MHC/direct/fluorescence; filed as Kd, often an IC50 or EC50 that approximates it; bounds were set here for any values at or beyond the usual limits of such assays
# Conditions: source organism: Marburg virus - Musoke, Kenya, 1980
Assay Metric: Kd (nM)

- Residues: "ATAVNQECW"
  Units Label: "nM"
  Observed Measurement: 4.1

----------
# Experimental System: HLA-A*03:01
# Method Notes: IEDB peptide-MHC binding, purified MHC/direct/fluorescence; filed as Kd, often an IC50 or EC50 that approximates it; bounds were set here for any values at or beyond the usual limits of such assays
# Conditions: source organism: Orthohantavirus andesense

- Residues: "VFTSRIQVI"
  Kd: "≥ 20 µM"
- Residues: "IQNALEKAL"
  Kd: "≥ 20 µM"

----------
# Experimental System: HLA-B*08:01
# Method Notes: IEDB peptide-MHC binding, purified MHC/competitive/fluorescence; filed as Kd, often an IC50 or EC50 that approximates it; bounds were set here for any values at or beyond the usual limits of such assays
# Conditions: source organism: Yersinia pestis Nepal516

- Residues: "LPLNRAYPL"
  Kd (nM): 60

----------
# Experimental System: HLA-A*02:01
# Method Notes: IEDB peptide-MHC binding, purified MHC/competitive/fluorescence; bounds were set here for any values at or beyond the usual limits of such assays
# Conditions: source organism: Zaire ebolavirus
pIC50: −log10 of the molar value.
Overview of reported pIC50 across a group of sequences:

- Residues: "DLVLFDLDE"
  pIC50: "≤ 3.37"
- Residues: "FLLQLNETI"
  pIC50: 6.48
- Residues: "GKLGLITNT"
  pIC50: "≤ 3.64"
- Residues: "ASENSSAMV"
  pIC50: "≤ 3.83"
- Residues: "VSSGKNIKR"
  pIC50: "≤ 3.85"
- Residues: "LARTAKVKN"
  pIC50: "≤ 3.67"
- Residues: "AQPKCNPNL"
  pIC50: 4.32
- Residues: "LLMLCLHHA"
  pIC50: 6.39
- Residues: "VSHLTTLAT"
  pIC50: "≤ 3.14"
- Residues: "SSGYYSTTI"
  pIC50: 4.19
- Residues: "SSAMVQVHS"
  pIC50: "≤ 3.23"

----------
# Experimental System: HLA-A*26:01
# Method Notes: IEDB peptide-MHC binding, purified MHC/competitive/fluorescence; filed as Kd, often an IC50 or EC50 that approximates it; bounds were set here for any values at or beyond the usual limits of such assays
# Conditions: source organism: Zaire ebolavirus
pKd: −log10 of the molar value.

- Residues: "FLILPQAKK"
  Experimental System: "HLA-A*26:01"
  pKd: "≤ 4.70"

----------
# Experimental System: HLA-B*40:01
# Method Notes: IEDB peptide-MHC binding, purified MHC/direct/fluorescence; filed as Kd, often an IC50 or EC50 that approximates it; bounds were set here for any values at or beyond the usual limits of such assays
# Conditions: source organism: Yersinia pestis

- Residues: "RPQLWRYRW"
  Experimental System: "HLA-B*40:01"
  Kd: "≥ 20 µM"

----------
# Experimental System: HLA-B*35:01
# Method Notes: IEDB peptide-MHC binding, purified MHC/competitive/radioactivity; filed as Kd, often an IC50 or EC50 that approximates it; bounds were set here for any values at or beyond the usual limits of such assays
# Conditions: source organism: Vaccinia virus WR
pKd: −log10 of the molar value.
Overview of reported pKd across a group of sequences:

- Residues: "RPTPKKMNIV"
  pKd: "≤ 4.31"
- Residues: "TFMIITSTK"
  pKd: 4.71
- Residues: "KVFSFWLLCK"
  pKd: "≤ 4.32"
- Residues: "LPRVVGGKTV"
  pKd: "≤ 4.54"

----------
# Experimental System: HLA-A*03:01
# Method Notes: IEDB peptide-MHC binding, purified MHC/direct/fluorescence; filed as Kd, often an IC50 or EC50 that approximates it; bounds were set here for any values at or beyond the usual limits of such assays
# Conditions: source organism: Pseudomonas viridiflava
Assay Metric: Kd

- Residues: "DYDQRDYGF"
  Experimental System: "HLA-A*03:01"
  Assay Metric: "Kd"
  Observed Measurement: "≥ 20 µM"

----------
# Experimental System: HLA-A*11:01
# Method Notes: IEDB peptide-MHC binding, purified MHC/direct/fluorescence; filed as Kd, often an IC50 or EC50 that approximates it; bounds were set here for any values at or beyond the usual limits of such assays
# Conditions: source organism: Yersinia pestis
pKd: −log10 of the molar value.
Assay Metric: pKd

- Residues: "RPQLWRYRW"
  Observed Measurement: "≤ 4.70"

----------
# Experimental System: HLA-A*31:01
# Method Notes: IEDB peptide-MHC binding, purified MHC/competitive/radioactivity; filed as Kd, often an IC50 or EC50 that approximates it; bounds were set here for any values at or beyond the usual limits of such assays
# Conditions: source organism: Dengue virus 2 Peru/IQT2913/1996
pKd: −log10 of the molar value.

- Residues: "TVMAFHLTTR"
  pKd: 8.80

----------
Overview of reported pKd across a group of sequences:
# Experimental System: HLA-A*31:01
# Method Notes: IEDB peptide-MHC binding, purified MHC/competitive/radioactivity; filed as Kd, often an IC50 or EC50 that approximates it; bounds were set here for any values at or beyond the usual limits of such assays
# Conditions: source organism: SARS coronavirus Tor2
pKd: −log10 of the molar value.

- Residues: "ATVVIGTSK"
  pKd: 5.88
- Residues: "ATSTRHPSK"
  pKd: 6.21
- Residues: "RVPRNLTLSK"
  pKd: 6.12
- Residues: "VFGSTMNNK"
  pKd: 5.58
- Residues: "SMQGAVDINR"
  pKd: 6.73
- Residues: "YTNEIIGYK"
  pKd: 6.03
- Residues: "MQGAVDINR"
  pKd: 6.39
- Residues: "QQWIQFMMSR"
  pKd: 6.90
- Residues: "KQIANQFNK"
  pKd: 7.62
- Residues: "FLAVFQSATK"
  pKd: 4.97

----------
# Experimental System: HLA-B*57:01
# Method Notes: IEDB peptide-MHC binding, purified MHC/direct/fluorescence; filed as Kd, often an IC50 or EC50 that approximates it; bounds were set here for any values at or beyond the usual limits of such assays
# Conditions: source organism: Orthomarburgvirus marburgense

- Residues: "LEHGLYPQL"
  Experimental System: "HLA-B*57:01"
  Kd: "≥ 20 µM"

----------
# Experimental System: HLA-B*46:01
# Method Notes: IEDB peptide-MHC binding, purified MHC/competitive/fluorescence; filed as Kd, often an IC50 or EC50 that approximates it; bounds were set here for any values at or beyond the usual limits of such assays
# Conditions: source organism: Zaire ebolavirus
pKd: −log10 of the molar value.
Overview of reported pKd across a group of sequences:

- Residues: "KLINTLFHA"
  pKd: "≤ 4.70"
- Residues: "EAEKQLQQY"
  pKd: "≤ 4.70"
- Residues: "FLILPQAKK"
  pKd: "≤ 4.70"
